System: Birdseye Speedwell
Assay: pre-emergence herbicide test
Format: in vivo
Conditions: pre-emergence, 0.25 lb/A; read-out: % plant inhibition
Please provide measured inhibition at 280.212 g/ha for the entries that follow.
Give the value; after it, write the unit.

See these solved cases before continuing.
| molecule | assay-system | result |
| --- | --- | --- |
| CCCCCOC(=O)c1cc(-c2nn(C)c(C(F)(F)F)c2C)c(F)cc1Cl [Compound 48] | Birdseye Speedwell | 100% |
| CC(C)OC(=O)c1cc(-c2nn(C)c(C(F)(F)F)c2C=O)c(F)cc1Cl [Compound 12] | Birdseye Speedwell | 80% |
| Cc1cc(-c2nn(C)c(C(F)(F)F)c2C)c(O)cc1Cl [Compound 16] | Birdseye Speedwell | 100% |
| COCC(C)OC(=O)c1cc(-c2nn(C)c(C(F)(F)F)c2C)c(F)cc1Cl (centres unmarked) [Compound 52] | Birdseye Speedwell | 95% |

Batch: inhibition at 280.212 g/ha for all items listed.
1. CC(C)OC(=O)c1cc(-c2nn(C)c(C(F)(F)F)c2C(F)F)c(F)cc1Cl [Compound 13]
2. CCCCCCCCCCCCOC(=O)c1cc(-c2nn(C)c(C(F)(F)F)c2C)c(F)cc1Cl [Compound 49]

# output
90%
55%

Batch: inhibition at 280.212 g/ha for all items listed.
1. CCOC(=O)CCCOC(=O)c1cc(-c2nn(C)c(C(F)(F)F)c2C)c(F)cc1Cl [Compound 24]
2. CC(=O)CCCOC(=O)c1cc(-c2nn(C)c(C(F)(F)F)c2C)c(F)cc1Cl [Compound 53]

# output
1. 100%
2. 70%

----------
Tested on: Velvetleaf
Assay: pre-emergence herbicide test
Assay type: in vivo
Conditions: Abutilon theophrasti, pre-emergence, 0.25 lb/A; read-out: % plant inhibition
Protocol: Topsoil was placed in an aluminum pan and compacted to a depth of 1.3 to 1.6 cm from the top of the pan. On the top of the soil was placed a predetermined number of seeds of each of several monocotyledonous and dicotyledonous annual plant species and/or vegetative propagules of various perennial plant species. […] Approximately 14 days after seeding and treating, the pans were observed and the results (% inhibition) were recorded. […]
Please provide measured inhibition at 280.212 g/ha for the entries that follow.
Give bare numbers, in %.

| structure | inhibition at 280.212 g/ha / % |
| --- | --- |
| CC(=O)CCCOC(=O)c1cc(-c2nn(C)c(C(F)(F)F)c2C)c(F)cc1Cl | 85 |
| Cc1c(-c2cc(CSC(C)C)c(Cl)cc2F)nn(C)c1C(F)(F)F | 70 |
| CC(C)OC(=O)c1cc(-c2nn(C)c(C(F)(F)F)c2CO)c(F)cc1Cl | 60 |

Batch: inhibition at 280.212 g/ha for all items listed.
1. Cc1c(-c2cc(C(=O)OC(C)C)c(Cl)cc2F)nn(C)c1C(F)(F)F
2. C#CCOC(=O)c1cc(-c2nn(C)c(C(F)(F)F)c2C)c(F)cc1Cl
3. Cc1c(-c2cc(C(=O)NC(C)C)c(Cl)cc2F)nn(C)c1C(F)(F)F
4. Cc1c(-c2cc(CSCC(C)C)c(Cl)cc2F)nn(C)c1C(F)(F)F
5. Cc1c(-c2cc(C(=O)OCCC(C)C)c(Cl)cc2F)nn(C)c1C(F)(F)F
6. CSCc1cc(-c2nn(C)c(C(F)(F)F)c2C)c(F)cc1Cl

# output
98
65
40
25
90
90

----------
Tested on: Barnyardgrass
Experiment: post-emergence herbicide test
Assay type: in vivo
Settings: Echinochloa crus-galli, post-emergence, 0.0071 lb/A; read-out: % plant inhibition
Please provide measured inhibition at 7.95803 g/ha for the entries that follow.
One number for each entry, in %.

See these solved cases before continuing.
| structure | inhibition at 7.95803 g/ha [%] |
| --- | --- |
| COc1cc(-c2nn(C)c(C(F)(F)F)c2C)c(F)cc1[N+](=O)[O-] | 0 |
| Cc1c(-c2cc(OCC(=O)OC(C)C)c(Cl)cc2F)nn(C)c1C(F)(F)F | 10 |
| Cc1c(-c2cc(F)c([N+](=O)[O-])cc2F)nn(C)c1C(F)(F)F | 0 |
| COc1cc(-c2nn(C)c(C(F)(F)F)c2C)c(F)cc1Cl | 0 |

# evaluate next
# input Form field - read-out: inhibition at 7.95803 g/ha; system: Barnyardgrass; submitted item: "C#CCOc1cc(-c2nn(C)c(C(F)(F)F)c2C)c(F)cc1Cl"
# output 30

----------
Tested on: Cocklebur
Experiment: post-emergence herbicide test
Format: in vivo
Settings: Xanthium strumarium, post-emergence, 0.1785 lb/A; read-out: % plant inhibition
property-measured: inhibition at 200.072 g/ha (%)
Give bare numbers, in %.

See these solved cases before continuing.
| structure | assay-system | quantitative-result |
| --- | --- | --- |
| Cc1c(-c2cc(F)c([N+](=O)[O-])cc2F)nn(C)c1C(F)(F)F | Cocklebur | 0 |
| Cc1c(-c2cc(O)c(Cl)cc2F)nn(C)c1C(F)(F)F | Cocklebur | 65 |
| Cn1nc(-c2cc(F)ccc2F)c(C=O)c1C(F)(F)F | Cocklebur | 0 |

Batch: inhibition at 200.072 g/ha for all items listed.
1. C#CCOc1cc(-c2nn(C)c(C(F)(F)F)c2C)c(F)cc1Cl
2. COc1cc(-c2nn(C)c(C(F)(F)F)c2C)c(F)cc1Cl
3. Cc1c(-c2cc(OCC(=O)OC(C)C)c(Cl)cc2F)nn(C)c1C(F)(F)F
4. Cc1c(-c2cc(F)ccc2F)nn(C)c1C(F)(F)F
5. COc1cc(-c2nn(C)c(C(F)(F)F)c2C)c(F)cc1[N+](=O)[O-]

# output
80
55
80
0
60

----------
Please provide measured inhibition at 280.212 g/ha for the entries that follow.
System: Velvetleaf
Assay: pre-emergence herbicide test
Format: in vivo
Settings: Abutilon theophrasti, pre-emergence, 0.25 lb/A; read-out: % plant inhibition
Give bare numbers, in %.

| compound | unit-name | inhibition at 280.212 g/ha |
| --- | --- | --- |
| Cc1c(-c2cc(CO)c(Cl)cc2F)nn(C)c1C(F)(F)F | % | 98 |
| CCOC(=O)CCCOC(=O)c1cc(-c2nn(C)c(C(F)(F)F)c2C)c(F)cc1Cl | % | 60 |
| Cc1c(-c2cc(C(=O)OCc3ccccc3)c(Cl)cc2F)nn(C)c1C(F)(F)F | % | 90 |
| Cc1c(-c2cc(C(=O)OCC(=O)OC(C)C)c(Cl)cc2F)nn(C)c1C(F)(F)F | % | 65 |
| COCC(C)OC(=O)c1cc(-c2nn(C)c(C(F)(F)F)c2C)c(F)cc1Cl (centres unmarked) | % | 100 |

Batch: inhibition at 280.212 g/ha for all items listed.
1. COC(=O)c1cc(-c2nn(C)c(C(F)(F)F)c2C)c(F)cc1Cl
2. COC(=O)CSCc1cc(-c2nn(C)c(C(F)(F)F)c2C)c(F)cc1Cl
3. CCOC(=O)COC(=O)c1cc(-c2nn(C)c(C(F)(F)F)c2C)c(F)cc1Cl

# output
1. 98
2. 80
3. 50

----------
Please provide measured % plant inhibition for the entries that follow.
System: Giant Foxtail
Test: pre-emergence herbicide test
Type: in vivo
Conditions: 0.25 lb/A
Answers are plain numbers, in %.

See these solved cases before continuing.
| molecule | unit-name | quantitative-result |
| --- | --- | --- |
| CCOC(=O)c1cc(-c2nn(C)c(C(F)(F)F)c2C)c(F)cc1Cl | % | 100 |
| CCCOC(=O)c1cc(-c2nn(C)c(C(F)(F)F)c2C)c(F)cc1Cl | % | 100 |
| CCOC(=O)C(C)OC(=O)c1cc(-c2nn(C)c(C(F)(F)F)c2C)c(F)cc1Cl (stereo not shown) | % | 80 |

# evaluate next
# input Look up % plant inhibition: "Cc1c(-c2cc(C(=O)OCCC(C)C)c(Cl)cc2F)nn(C)c1C(F)(F)F"
# output 100

----------
Tested on: Blackgrass
Test: post-emergence herbicide test
Format: in vivo
Settings: Alopecurus myosuroides, post-emergence, 0.0071 lb/A; Table 5a; read-out: % plant inhibition
Please provide measured inhibition at 7.95803 g/ha for the entries that follow.
One number for each entry, in %.

See these solved cases before continuing.
| structure | property-measured | quantitative-result |
| --- | --- | --- |
| Cc1c(-c2cc(OCC(=O)OC(C)C)c(Cl)cc2F)nn(C)c1C(F)(F)F | inhibition at 7.95803 g/ha | 0 |
| Cc1c(-c2cc(F)c([N+](=O)[O-])cc2F)nn(C)c1C(F)(F)F | inhibition at 7.95803 g/ha | 0 |

Batch: inhibition at 7.95803 g/ha for all items listed.
1. C#CCOc1cc(-c2nn(C)c(C(F)(F)F)c2C)c(F)cc1Cl
2. COc1cc(-c2nn(C)c(C(F)(F)F)c2C)c(F)cc1[N+](=O)[O-]
3. COc1cc(-c2nn(C)c(C(F)(F)F)c2C)c(F)cc1Cl

# output
1: 0; 2: 0; 3: 10
